- targetOrSystem: human Somatostatin 4 Receptor (SSTR4) (Homo sapiens (Human), UniProt P31391)
- Sequence (P31391 whole entry): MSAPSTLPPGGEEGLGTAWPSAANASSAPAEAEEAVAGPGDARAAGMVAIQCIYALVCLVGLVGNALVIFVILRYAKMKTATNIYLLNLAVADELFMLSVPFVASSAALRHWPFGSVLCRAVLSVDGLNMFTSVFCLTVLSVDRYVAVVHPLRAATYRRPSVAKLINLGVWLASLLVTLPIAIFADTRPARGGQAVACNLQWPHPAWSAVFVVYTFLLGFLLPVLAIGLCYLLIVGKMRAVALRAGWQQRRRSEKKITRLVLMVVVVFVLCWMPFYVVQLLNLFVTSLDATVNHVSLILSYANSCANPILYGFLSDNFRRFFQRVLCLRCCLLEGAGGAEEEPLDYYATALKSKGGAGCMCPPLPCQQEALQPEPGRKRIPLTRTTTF
- assayRemarks: cAMP assay with human somatostatin 4 receptor (hSSTR4 expressing H4 cells)
- measurementConditions: read-out: SSTR4 agonism EC50
measureName: EC50 (nM)

compound: Cc1cc2ccccc2c(C(C)(C)NC(=O)C2CCNCCO2)n1 (single isomer, unassigned) [Example 52]
EC50 / nM: 48.9

compound: CC(C)(NC(=O)C1CNCCOC1)c1noc2c(F)cccc12 (single isomer, unassigned) [Example 63]
EC50 / nM: 42

compound: Cc1cccn2c(C(C)(NC(=O)[C@@H]3CNCCO3)C3CC3)ncc12 (single isomer, unassigned) [Example 111]
EC50 / nM: 290

compound: Cc1cccn2c(C(C)(C)NC(=O)[C@@H]3CNCCO3)nnc12 [Example 105]
EC50 / nM: 596

compound: COc1cccn2c(C(C)(C)NC(=O)C3CNCCOC3)ncc12 (single isomer, unassigned) [Example 125]
EC50 / nM: 16.4

P. Cc1cccn2c(C(C)(C)NC(=O)C3CNCCOC3)nc(C)c12 (racemic) [Example 128]
Q. Cc1cccn2c(C(C)(C)NC(=O)C3CCNCCO3)ncc12 (single isomer, unassigned) [Example 143]
Request: Of P and Q , which carries the smaller reported EC50 figure? State your choice using its label.
Response: P
(P: 5 nM, Q: 77.6 nM)

###

- targetOrSystem: human Somatostatin 4 Receptor (SSTR4) (Homo sapiens (Human))
- assayRemarks: cAMP assay with human somatostatin 4 receptor (hSSTR4 expressing H4 cells)
- measurementConditions: read-out: SSTR4 agonism EC50
measureName: EC50 (nM)

Example entries and their recorded answers appear below.
compound: Cn1nc(C(C)(C)NC(=O)C2CNCCOC2)c2cccc(F)c21 (single isomer, unassigned) [Example 77]
valueMeasured: 5.1
//
compound: CC(C)(NC(=O)[C@@H]1CNCCO1)c1ccnc2ccccc12
valueMeasured: 26.3
//
compound: Cc1cccn2c(C(C)(C)NC(=O)C3CNCCOC3)ncc12 (single isomer, unassigned) [Example 118]
valueMeasured: 86.8
//
compound: Cc1cccn2c(C(C)(C)NC(=O)C3CCNCCO3)ncc12 (racemic) [Example 141]
valueMeasured: 90.2

P. CC(C)(NC(=O)[C@@H]1CNCCO1)c1nc2ccc(Cl)cc2[nH]1
Q. CC(C)(NC(=O)C1CNCCOC1)c1ncc2c(Cl)cccn12 (single isomer, unassigned) [Example 119]
R. Cc1cccn2c(C(C)(C)NC(=O)C3CNCCOC3)nc(C)c12 (single isomer, unassigned) [Example 129]
Request: Would you mind ranking these compounds by ascending EC50? Form entry: labels listed in requested order.
Response: R, Q, P

###

- targetOrSystem: human Somatostatin 4 Receptor (SSTR4) (Homo sapiens (Human))
- assayRemarks: cAMP assay with human somatostatin 4 receptor (hSSTR4 expressing H4 cells)
- measurementConditions: read-out: SSTR4 agonism EC50
measureName: EC50 (nM)

Completed entries (count: 4):
molecule: Cc1nc(C(C)(C)NC(=O)C2CNCCOC2)n2cccc(F)c12 (single isomer, unassigned) [Example 122]
unitOfMeasure: nM
valueMeasured: 1000
//
molecule: Cc1cc2ccccc2c(C(C)(C)NC(=O)C2CNCCCO2)n1 (single isomer, unassigned) [Example 49]
unitOfMeasure: nM
valueMeasured: 988
//
molecule: Cc1ccccc1OCC(C)(C)NC(=O)[C@@H]1CNCCO1 [Example 15]
unitOfMeasure: nM
valueMeasured: 244
//
molecule: Cc1cccc2c(C(C)(C)NC(=O)C3CNCCOC3)cnn12 (racemic) [Example 33]
unitOfMeasure: nM
valueMeasured: 7.7

1. Cc1nnc(C(C)(C)NC(=O)[C@@H]2CNCCO2)c2ccccc12 [Example 36]
2. Cc1cccn2c(C(C)(C)NC(=O)[C@@H]3CNCCO3)cnc12 [Example 108]
3. Cc1cccn2c(C3(NC(=O)[C@@H]4CNCCO4)CCOC3)ncc12 (single isomer, unassigned) [Example 114]
Request: Sort the 3 molecules by EC50; largest first, smallest last. API: response body holds the labels in the requested order.
Response: 3, 2, 1

1. Cc1cccn2c(C3(NC(=O)[C@@H]4CNCCO4)CCC3)ncc12 [Example 102]
2. Cn1nc(C(C)(C)NC(=O)[C@@H]2CNCCO2)c2cccc(C(F)(F)F)c21 [Example 31]
Request: Which of the two gives a bigger number for EC50: 1 or 2 ? Reply briefly: the label of your chosen item.
Response: 2

P. Cn1nc(C(C)(C)NC(=O)C2CCNCCO2)c2ccccc21 (racemic) [Example 26]
Q. CC(C)(NC(=O)C1CNCCCO1)c1noc2c(F)cccc12 (single isomer, unassigned) [Example 67]
Request: Select the item with the higher value of EC50 from the options P and Q listed. Could you answer with the label of the item you picked?
Response: Q

###

- targetOrSystem: human Somatostatin 4 Receptor (SSTR4) (Homo sapiens (Human))
- assayRemarks: cAMP assay with human somatostatin 4 receptor (hSSTR4 expressing H4 cells)
- measurementConditions: read-out: SSTR4 agonism EC50
pEC50: −log10 of the molar value.
measureName: pEC50

molecule: Cc1cccc2c(C(C)(C)NC(=O)C3CNCCOC3)nn(C)c12 (single isomer, unassigned) [Example 86]
pEC50: 6.00

a. CC(C)(NC(=O)[C@@H]1CNCCO1)c1noc2c(Cl)cccc12 [Example 71]
b. Cc1cccn2c(C(C)(C)NC(=O)C3CNCCOC3)ncc12 (single isomer, unassigned) [Example 117]
Request: Parameter check: reported pEC50 is higher for which label, a or b ? Answer with the label corresponding to your selection.
Response: b
(b: 8.59, a: 7.45)

###

- targetOrSystem: human Somatostatin 4 Receptor (SSTR4) (Homo sapiens (Human), UniProt P31391)
- assayRemarks: cAMP assay with human somatostatin 4 receptor (hSSTR4 expressing H4 cells)
- measurementConditions: read-out: SSTR4 agonism EC50
measureName: EC50 (nM)

I. Cn1nc(C(C)(C)NC(=O)C2CNCCOC2)c2cccc(Cl)c21 (racemic) [Example 80]
II. Cc1cccn2c(C3(NC(=O)[C@@H]4CNCCO4)CCOC3)ncc12 (single isomer, unassigned) [Example 115]
Request: Identify the item whose EC50 is the smaller number: I or II // output: label of the selected item
Response: I

###

- targetOrSystem: human Somatostatin 4 Receptor (SSTR4) (Homo sapiens (Human), UniProt P31391)
- assayRemarks: cAMP assay with human somatostatin 4 receptor (hSSTR4 expressing H4 cells)
- measurementConditions: read-out: SSTR4 agonism EC50
measureName: EC50 (nM)

Record excerpt, results attached:
compound: Cc1cccn2c(C(C)(C)NC(=O)[C@@H]3CNCCO3)nc(C3CC3)c12 [Example 104]
EC50 [nM]: 73.5

compound: CC(C)(COc1cnccc1C(F)(F)F)NC(=O)[C@@H]1CNCCO1 [Example 9]
EC50 [nM]: 190

compound: Cc1cccc2c(C(C)(C)NC(=O)C3CNCCOC3)nn(C)c12 (single isomer, unassigned) [Example 85]
EC50 [nM]: 2

compound: Cc1cc2cccnc2c(C(C)(C)NC(=O)C2CNCCOC2)n1 (stereo not shown) [Example 2]
EC50 [nM]: 90.1

compound: Cc1cccn2c(C(C)(C)NC(=O)C3CNCCCO3)nc(C)c12 (racemic) [Example 147]
EC50 [nM]: 185

compound: Cc1cccn2c(C(C)(CC(C)C)NC(=O)[C@@H]3CNCCO3)ncc12 (single isomer, unassigned) [Example 112]
EC50 [nM]: 5500

A. Cc1cccc2c(C(C)(C)NC(=O)C3CNCCOC3)n[nH]c12 (single isomer, unassigned) [Example 59]
B. CC(C)(NC(=O)C1CNCCOC1)c1nc2ccc(Cl)cc2[nH]1 (stereo not shown) [Example 13]
C. Cc1cccn2c(C(C)(C)NC(=O)C3CNCCCO3)ncc12 (racemic) [Example 144]
D. CC(C)(NC(=O)C1CNCCOC1)c1n[nH]c2c(F)cccc12 (single isomer, unassigned) [Example 89]
Request: Order field: EC50 | Direction: descending (largest first) Would you mind listing the labels in the order asked for?
Response: A, B, C, D

P. Cc1cccn2c(C(C)(C)NC(=O)C3CNCCOC3)nc(C)c12 (single isomer, unassigned) [Example 130]
Q. Cn1nc(C(C)(C)NC(=O)C2CCNCCO2)c2ccccc21 (single isomer, unassigned) [Example 28]
Request: Which of these two has the smaller recorded EC50: P or Q ? API: response body contains the label of the selected item.
Response: Q
(Q: 48.4 nM, P: 466 nM)

I. Cc1cccn2c(C(C)(C)NC(=O)C3CNCCCO3)nc(C)c12 (single isomer, unassigned) [Example 149]
II. Cc1nc2ccccn2c1C(C)(C)NC(=O)[C@@H]1CNCCO1 [Example 106]
III. Cc1cccn2c(C(C)(C)NC(=O)C3CNCCOC3)ncc12 (racemic) [Example 116]
IV. CC(C)(NC(=O)[C@@H]1CNCCO1)C1CCCCC1 [Example 7]
Request: Order the records by EC50, with each subsequent value no larger than the one before. Returns: the labels listed in the requested order.
Response: IV, I, II, III
